Recorded values, source the supplement of paper PMC6555819.

Tested on: THRa:RXRa (NR concentration 90 nM, RXRa partner concentration 90 nM)
Assay: PBM binding z-score (relative to random genomic background probes); higher = stronger binding; sequences stand for … in GC…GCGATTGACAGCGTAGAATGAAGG
Label Yes for high-side PBM binding z-score (at or above 3) and No for low-side PBM binding z-score (below it).

{"columns": ["entry sequence", "target desc", "qualitative label"],
 "data": [
  ["ATCGAAAGGTCGTGAGGTGAGTAAACAGAAAGGC", "THRa:RXRa (NR concentration 90 nM, RXRa partner concentration 90 nM)", "Yes"],
  ["TCTGCTAGGTCAGTTGGTCTGCTAACGAGCTGCC", "THRa:RXRa (NR concentration 90 nM, RXRa partner concentration 90 nM)", "No"]
]}

Query block: Quick check, PBM binding z-score >= 3? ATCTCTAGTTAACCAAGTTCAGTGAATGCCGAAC
Result block: No

Query block: Quick check, PBM binding z-score >= 3? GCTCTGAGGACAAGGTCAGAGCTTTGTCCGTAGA
Result block: Yes

Query block: Quick check, PBM binding z-score >= 3? AGAATGAGGTGAAGATCAGGGAAACAGAATACAT
Result block: No

Query block: Quick check, PBM binding z-score >= 3? CCGACTGGTGCATAAGGTTACCATAAGCCAGCCC
Result block: No

Query block: Quick check, PBM binding z-score >= 3? GGTCGGAGGACAAGGTCAGAGCTTTGTCCGTAGA
Result block: Yes

----------
Test system: VDR:RXRa (NR concentration 270 nM, RXRa partner concentration 90 nM)
Test: PBM binding z-score (relative to random genomic background probes); higher = stronger binding; sequences stand for … in GC…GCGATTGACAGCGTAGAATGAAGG
Label Condition met for high-side PBM binding z-score (at or above 2) and Condition not met for low-side PBM binding z-score (below it).

Sample answers from the record:
{"columns": ["entry sequence", "target desc", "qualitative label"],
 "data": [
  ["TCGATTAGGTTAGGGGCATTCAGAATGGCGTCGA", "VDR:RXRa (NR concentration 270 nM, RXRa partner concentration 90 nM)", "Condition not met"],
  ["CCTATTACTTGACCATAAGGGCAACCGAAGCTCG", "VDR:RXRa (NR concentration 270 nM, RXRa partner concentration 90 nM)", "Condition not met"],
  ["CGAACGAGGGCATGAGTTCATAGCAAATGCCGAT", "VDR:RXRa (NR concentration 270 nM, RXRa partner concentration 90 nM)", "Condition met"],
  ["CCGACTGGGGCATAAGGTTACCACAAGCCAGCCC", "VDR:RXRa (NR concentration 270 nM, RXRa partner concentration 90 nM)", "Condition not met"],
  ["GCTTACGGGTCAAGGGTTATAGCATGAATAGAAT", "VDR:RXRa (NR concentration 270 nM, RXRa partner concentration 90 nM)", "Condition met"]
]}

Query block: Quick check, PBM binding z-score >= 2? TGTCAAAGTTCAAACGTAACGTAAGTATCCACAC
Result block: Condition met

Query block: Quick check, PBM binding z-score >= 2? ACTAGTTGGTCAGCAGAGGTCACACACAATTCGG
Result block: Condition met

----------
System: PPARa:RXRa (NR concentration 270 nM, RXRa partner concentration 90 nM)
Test: PBM binding z-score (relative to random genomic background probes); higher = stronger binding; sequences stand for … in GC…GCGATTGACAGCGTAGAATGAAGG
Label class 1 for high-side PBM binding z-score (at or above 2) and class 0 for low-side PBM binding z-score (below it).

{"columns": ["entry sequence", "target desc", "qualitative label"],
 "data": [
  ["CGAACTAGGTCAGAACACGACAGTGAAGGATGAT", "PPARa:RXRa (NR concentration 270 nM, RXRa partner concentration 90 nM)", "class 1"],
  ["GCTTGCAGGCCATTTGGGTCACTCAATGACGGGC", "PPARa:RXRa (NR concentration 270 nM, RXRa partner concentration 90 nM)", "class 0"],
  ["CCGACTGGGGCAAAGGTTAACATACTCAGTACGA", "PPARa:RXRa (NR concentration 270 nM, RXRa partner concentration 90 nM)", "class 1"],
  ["CCTAGCAGGCCAATCTTGGTCACTCAAGGCTTGA", "PPARa:RXRa (NR concentration 270 nM, RXRa partner concentration 90 nM)", "class 0"],
  ["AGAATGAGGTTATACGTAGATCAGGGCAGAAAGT", "PPARa:RXRa (NR concentration 270 nM, RXRa partner concentration 90 nM)", "class 1"]
]}

Query block: Quick check, PBM binding z-score >= 2? TAGCCTAGGTGATGCGGGCCAGTATAGTGTCGGC
Result block: class 0
